Molecular target: IL-18 receptor (heterodimeric surface receptor composed of α- and β-chains) on KG-1 cells
Assay: cell-based or functional assay
Recorded NF-κB KG-1 EC50 by entry
Don't forget the unit after the number, please.

Take a look at these entries with their results.
# BINDER, MEASURED VALUE
measured = [
    ("human IL-18 C38S, C68D, D157C (SEQ ID NO:8) (ligand, Non-pegylated substitution mutant; also called IL-18 C157 (C38S, C68D, D157C)) YFGKLESKLSVIRNLNDQVLFIDQGNRPLFEDMTDSDSRDNAPRTIFIISMYKDSQPRGMAVTISVKDEKISTLSCENKIISFKEMNPPDNIKDTKSDIIFFQRSVPGHDNKMQFESSSYEGYFLACEKERDLFKLILKKEDELGDRSIMFTVQNEC", "0.004 µg/mL"),
    ("human IL-18 C38S, C68S, D157C (SEQ ID NO:10) monopegylated at C157 with 30K PEG (ligand, methoxy polyethylene glycol maleimide, 30,000 Da, on Cys 157, also called IL-18 C157PEG30K; 157C-30K) YFGKLESKLSVIRNLNDQVLFIDQGNRPLFEDMTDSDSRDNAPRTIFIISMYKDSQPRGMAVTISVKSEKISTLSCENKIISFKEMNPPDNIKDTKSDIIFFQRSVPGHDNKMQFESSSYEGYFLACEKERDLFKLILKKEDELGDRSIMFTVQNEC", "0.047 µg/mL"),
    ("human IL-18 C38S, C68D, L144C (SEQ ID NO:7) monopegylated at C144 with 30K PEG (ligand, methoxy polyethylene glycol maleimide, 30,000 Da, on Cys 144, also called IL-18 C144PEG30K) YFGKLESKLSVIRNLNDQVLFIDQGNRPLFEDMTDSDSRDNAPRTIFIISMYKDSQPRGMAVTISVKDEKISTLSCENKIISFKEMNPPDNIKDTKSDIIFFQRSVPGHDNKMQFESSSYEGYFLACEKERDLFKLILKKEDECGDRSIMFTVQNED", "0.038 µg/mL"),
]

q: Which measured NF-κB KG-1 EC50 value corresponds to human IL-18 C38S, C68S, L144C (SEQ ID NO:9) monopegylated at C144 with 30K PEG (ligand, methoxy polyethylene glycol maleimide, 30,000 Da, on Cys 144, also called IL-18 C144PEG30K) YFGKLESKLSVIRNLNDQVLFIDQGNRPLFEDMTDSDSRDNAPRTIFIISMYKDSQPRGMAVTISVKSEKISTLSCENKIISFKEMNPPDNIKDTKSDIIFFQRSVPGHDNKMQFESSSYEGYFLACEKERDLFKLILKKEDECGDRSIMFTVQNED ?
a: 0.044 µg/mL
